Values from patent EP4682166A1

Reported Fold decrease in affinity values follow for various binders
- measurement_target: T1, human NMI (N-myc Interacting protein), recombinant protein (human, UniProt Q13287 1-307, limits assumed)
- T1 construct: Gene ID: 9111; also called hNMI; antigen
- T1 sequence (looked up): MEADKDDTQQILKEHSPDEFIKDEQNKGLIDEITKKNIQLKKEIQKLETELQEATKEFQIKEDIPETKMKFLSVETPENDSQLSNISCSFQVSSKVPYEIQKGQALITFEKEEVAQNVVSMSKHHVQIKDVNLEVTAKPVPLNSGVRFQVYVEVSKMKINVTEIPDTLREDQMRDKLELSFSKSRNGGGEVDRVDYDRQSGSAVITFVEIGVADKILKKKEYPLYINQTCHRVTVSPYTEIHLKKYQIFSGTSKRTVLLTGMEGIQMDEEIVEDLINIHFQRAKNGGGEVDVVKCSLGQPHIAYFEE
- test_protocol: ELISA EC50 against parent 94C4

Known results for binders:
94C4 mutant D101E (VH) (antibody, V domains shown) VH: QSLEESGGGLVQPEGSLTLTCKASGFDFSSNAMCWVRQAPGKGLEWIACISSASSGSSGSTYYASWAKGRFTISKTSSTTVTLQMTSLTAADMATYFCAREGYDLWGPGTLVTVSS VL: QVLTQTPSSVSAAVGGTVTISCQSSPSVYNNYLSWFQQKPGQSPKLLIYRVSTLASGVPSRFSGSGSGTQFTLTISGVQCDDAATYYCAGGYDSASDTYVFGGGTEVVVK | > 500 fold
94C4 mutant A32K (VH) (antibody, V domains shown) VH: QSLEESGGGLVQPEGSLTLTCKASGFDFSSNKMCWVRQAPGKGLEWIACISSASSGSSGSTYYASWAKGRFTISKTSSTTVTLQMTSLTAADMATYFCARDGYDLWGPGTLVTVSS VL: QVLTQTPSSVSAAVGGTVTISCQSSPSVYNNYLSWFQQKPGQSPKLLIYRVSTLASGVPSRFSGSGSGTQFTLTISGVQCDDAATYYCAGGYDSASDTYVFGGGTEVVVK | > 500 fold

Turning now to a further binder:
Challenge: Recorded Fold decrease in affinity of 94C4 mutant D101M (VH) (antibody, V domains shown) VH: QSLEESGGGLVQPEGSLTLTCKASGFDFSSNAMCWVRQAPGKGLEWIACISSASSGSSGSTYYASWAKGRFTISKTSSTTVTLQMTSLTAADMATYFCARMGYDLWGPGTLVTVSS VL: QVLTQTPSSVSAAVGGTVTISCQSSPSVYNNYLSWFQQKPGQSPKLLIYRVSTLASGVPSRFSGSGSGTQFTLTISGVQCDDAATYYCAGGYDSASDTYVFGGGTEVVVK , please.
Response given: > 500 fold
